Value source: patent US8372866B2

Below, each entry is listed alongside its reported melting point.
Where a name gives a salt, the structure may show the parent alone.

# compound, melting point
rows = [
    ("CC(=N)Nc1ccc2oc(-c3ccccc3)cc(=O)c2c1 (as salt: hydrochloride)", "278.2 to 278.8 °C"),
    ("COc1ccc(-c2oc3ccc(NC(C)=N)cc3c(=O)c2O)cc1 (as salt: hydrochloride) (hydrate or solvate) [Example 12, hydrochloride monohydrate]", "260.1 to 261.1 °C"),
    ("COCCC(=N)Nc1ccc2oc(-c3ccc4c(c3)OCO4)c(O)c(=O)c2c1 (as salt: hydrochloride)", "188.5 to 190 °C"),
    ("CC(=N)Nc1ccc2oc(-c3cccc(-n4ccnc4)c3)c(O)c(=O)c2c1 (as salt: hydrochloride) [Example 8, dihydrochloride]", "281 to 281.5 °C"),
    ("N=C(CC1CC1)Nc1ccc2oc(-c3ccc(O)cc3)c(O)c(=O)c2c1 (as salt: hydrochloride)", "281 to 281.5 °C"),
]
